Provenance of the data: patent US12509463B2

target_entity: JAK1 (Homo sapiens)
Sequence (P23458 866-1154 limits assumed): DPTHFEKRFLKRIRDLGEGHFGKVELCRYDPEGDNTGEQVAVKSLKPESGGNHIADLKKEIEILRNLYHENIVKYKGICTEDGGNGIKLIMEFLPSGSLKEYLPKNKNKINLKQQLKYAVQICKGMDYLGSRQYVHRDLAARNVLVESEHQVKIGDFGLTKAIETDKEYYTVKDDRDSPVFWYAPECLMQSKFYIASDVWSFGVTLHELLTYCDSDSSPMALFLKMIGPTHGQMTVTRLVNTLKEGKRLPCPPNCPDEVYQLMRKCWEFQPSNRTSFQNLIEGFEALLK
quantity_name: IC50 (nM)
Answer in nM, number only, no unit symbol.

Requested read-out IC50, target or system JAK1 (Homo sapiens), entry "CNS(=O)(=O)C[C@H]1CC[C@H](N(C)c2ncnc3[nH]ccc23)CC1"
12.9
